Where these numbers come from: patent US20090246293A1

Assignment: determine reported % disease at 500 ppm of substance alone for the given molecules.
tested on: Pseudoperonospora cubensis (PSPECU); assay: Droplet application on cucumber leaf, growth chamber (Examples 5a-d); type: in vivo; settings: substance alone 500 ppm; untreated check 91%
# value in %; strip the unit string

Data request: Tell me % disease at 500 ppm of substance alone reported for CC(C)CCC(=O)O
Data returned: 88

Data request: Tell me % disease at 500 ppm of substance alone reported for N[C@@H](CCC(=O)O)C(=O)O
Data returned: 90

Data request: Tell me % disease at 500 ppm of substance alone reported for O=CCC1CC1
Data returned: 90
